# SYSTEM: JAK2 (Homo sapiens (Human))
# Sequence (O60674 808-1132): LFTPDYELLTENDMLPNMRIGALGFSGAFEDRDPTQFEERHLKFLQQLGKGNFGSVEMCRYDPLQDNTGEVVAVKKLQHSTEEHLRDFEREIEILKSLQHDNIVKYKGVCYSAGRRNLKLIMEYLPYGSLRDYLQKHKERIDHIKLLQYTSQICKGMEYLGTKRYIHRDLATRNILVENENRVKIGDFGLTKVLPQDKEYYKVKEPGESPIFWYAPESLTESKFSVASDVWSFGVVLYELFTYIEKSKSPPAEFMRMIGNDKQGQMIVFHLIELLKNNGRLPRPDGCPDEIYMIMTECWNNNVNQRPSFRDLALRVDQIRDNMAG
# PROTOCOL_DESCRIPTION: JAK enzymatic assay (peptide mobility shift), JAK2
# CONDITION_CONTEXT: recombinant JAK2 2 nM, JAKtide peptide, 150 minutes
pIC50: −log10 of the molar value.
Given measured pIC50, output criterion met if it is greater than or equal to 8 and criterion not met if not.

Before answering, review these 5 worked examples.
COMPOUND | ASSIGNED_CATEGORY
COCC1CCN(S(=O)(=O)C[C@H]2CC[C@H](N(C)c3ncnc4[nH]ccc34)CC2)CC1 | criterion not met
CN(c1ncnc2[nH]ccc12)[C@H]1CC[C@H](CS(=O)(=O)N2CC[C@H](OCC(=O)N3CCCC3)C2)CC1 | criterion not met
CN(c1ncnc2[nH]ccc12)[C@H]1CC[C@H](CS(=O)(=O)N2CCC[C@@H](OC(=O)C(C)(C)C)C2)CC1 | criterion met
CN(c1ncnc2[nH]ccc12)[C@H]1CC[C@H](CS(=O)(=O)N2CCC(O)CC2)CC1 | criterion not met
CN(c1ncnc2[nH]ccc12)[C@H]1CC[C@H](CS(=O)(=O)N2CCC(C)(O)CC2)CC1 | criterion not met

Prompt: State whether the measured pIC50 reaches 8, counting equality as reaching it, for `CC[C@@]1(CO)CCN(S(=O)(=O)C[C@H]2CC[C@H](N(C)c3ncnc4[nH]ccc34)CC2)C1`
Completion: criterion not met

Prompt: Decide: is the reported value of pIC50 for `CN(c1ncnc2[nH]ccc12)[C@H]1CC[C@@H](CS(=O)(=O)N2CCC[C@H](C#N)C2)CC1` equal to or greater than 8?
Completion: criterion not met

Prompt: Please tell me: is the compound C[C@H]1CN(S(=O)(=O)C[C@H]2CC[C@H](N(C)c3ncnc4[nH]ccc34)CC2)C[C@@H]1CO [Example 135] at or over 8 in terms of pIC50?
Completion: criterion met

Prompt: # bool: pIC50 of CCOC1CCCN(S(=O)(=O)CC2CCC(N(C)c3ncnc4[nH]ccc34)CC2)C1 (stereo not drawn) >= 8
Completion: criterion met

Prompt: Hello, I need to know if CCC1(NC(=O)OCc2ccccc2)CCCN(S(=O)(=O)C[C@H]2CC[C@H](N(C)c3ncnc4[nH]ccc34)CC2)C1 (stereo partly drawn) has measured pIC50 not below 8. Thanks!
Completion: criterion not met

Prompt: Kindly determine if pIC50 recorded for `CN(c1ncnc2[nH]ccc12)[C@H]1CC[C@H](CS(=O)(=O)N2C[C@](C)(CO)[C@](C)(CO)C2)CC1` is above or exactly 8.
Completion: criterion not met

Prompt: Exam item: decide whether the reported pIC50 for `CN(c1ncnc2[nH]ccc12)[C@H]1CC[C@H](CS(=O)(=O)N2CC[C@H](S(C)(=O)=O)C2)CC1` is at least 8.
Completion: criterion not met

Prompt: Item CN(c1ncnc2[nH]ccc12)[C@H]1CC[C@H](CS(=O)(=O)N2CCCC(C(F)(F)F)C2)CC1 (stereo partly drawn) with pIC50 of 8 or above?
Completion: criterion not met

Prompt: Quick check, pIC50 >= 8? `CC1CCN(S(=O)(=O)C[C@H]2CC[C@H](N(C)c3ncnc4[nH]ccc34)CC2)CC1`
Completion: criterion not met

Prompt: Answer whether pIC50 of `CN1CCN(S(=O)(=O)C[C@H]2CC[C@H](N(C)c3ncnc4[nH]ccc34)CC2)CC1` is greater than or equal to 8.
Completion: criterion met

Prompt: I'd appreciate it if you could say whether `CNS(=O)(=O)[C@H]1CCN(S(=O)(=O)C[C@H]2CC[C@H](N(C)c3ncnc4[nH]ccc34)CC2)C1` has pIC50 at least equal to 8.
Completion: criterion not met

Prompt: Check if pIC50 >= 8 (inclusive). Item: `COc1ccccc1CS(=O)(=O)[C@H]1CCN(S(=O)(=O)C[C@H]2CC[C@H](N(C)c3ncnc4[nH]ccc34)CC2)C1`
Completion: criterion not met

Prompt: // inclusive: pIC50 at least 8? input: `CN(c1ncnc2[nH]ccc12)[C@H]1CC[C@H](CS(=O)(=O)N2CCC[C@H](CS(N)(=O)=O)C2)CC1`
Completion: criterion not met

// provenance: patent US8633206B2
